test: Prewash IC50 ratio obtained by dividing the IC50 of the DADLE in presence of the antagonist by the IC50 of the agonist alone in the same tissue preparation against delta receptor in mouse vas deferens; type: functional

>  <molecule>
Oc1ccc2c3c1OC1c4[nH]c5c(N=C=S)cccc5c4CC4(O)C(C2)N(CC2CC2)CCC314 (centres undefined)

>  <Ratio>
7.99

$$$$
>  <molecule>
Oc1ccc2c3c1OC1c4[nH]c5cccc(N=C=S)c5c4CC4(O)C(C2)N(CC2CC2)CCC314 (centres undefined)

>  <Ratio>
4.59

$$$$
>  <molecule>
Oc1ccc2c3c1OC1c4[nH]c5cc(N=C=S)ccc5c4CC4(O)C(C2)N(CC2CC2)CCC314 (centres undefined)

>  <Ratio>
155

$$$$
>  <molecule>
Oc1ccc2c3c1OC1c4[nH]c5ccc(N=C=S)cc5c4CC4(O)C(C2)N(CC2CC2)CCC314 (centres undefined)

>  <Ratio>
6.68

$$$$

###

biological target: Delta-type opioid receptor (Rattus norvegicus, UniProt P33533); assay: Compound was evaluated for its effect towards [3H]DSLET binding to Opioid receptor delta 2 at 0.25 nM concentration
Sequence (P33533 whole entry): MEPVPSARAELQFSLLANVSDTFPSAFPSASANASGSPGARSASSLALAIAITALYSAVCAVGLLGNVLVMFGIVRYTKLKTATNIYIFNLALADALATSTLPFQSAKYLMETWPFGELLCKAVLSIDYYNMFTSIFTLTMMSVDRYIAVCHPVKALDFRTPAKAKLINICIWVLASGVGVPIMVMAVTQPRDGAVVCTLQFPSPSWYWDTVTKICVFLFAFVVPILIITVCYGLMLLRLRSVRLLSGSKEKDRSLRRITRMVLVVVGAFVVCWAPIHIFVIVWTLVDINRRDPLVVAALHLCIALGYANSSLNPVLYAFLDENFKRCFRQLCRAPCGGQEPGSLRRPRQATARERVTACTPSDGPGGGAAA
pKd: −log10 of the molar value.

>  <compound>
Oc1ccc2c3c1OC1c4[nH]c5c(N=C=S)cccc5c4CC4(O)C(C2)N(CC2CC2)CCC314 (stereo unspecified)

>  <experimental-system>
Delta-type opioid receptor (Rattus norvegicus, UniProt P33533)

>  <pKd>
7.80

$$$$
